// data source = ChEMBL document CHEMBL2150931

- study target: NAD-dependent protein deacetylase sirtuin-2 (Homo sapiens)
- Sequence (Q8IXJ6 whole entry): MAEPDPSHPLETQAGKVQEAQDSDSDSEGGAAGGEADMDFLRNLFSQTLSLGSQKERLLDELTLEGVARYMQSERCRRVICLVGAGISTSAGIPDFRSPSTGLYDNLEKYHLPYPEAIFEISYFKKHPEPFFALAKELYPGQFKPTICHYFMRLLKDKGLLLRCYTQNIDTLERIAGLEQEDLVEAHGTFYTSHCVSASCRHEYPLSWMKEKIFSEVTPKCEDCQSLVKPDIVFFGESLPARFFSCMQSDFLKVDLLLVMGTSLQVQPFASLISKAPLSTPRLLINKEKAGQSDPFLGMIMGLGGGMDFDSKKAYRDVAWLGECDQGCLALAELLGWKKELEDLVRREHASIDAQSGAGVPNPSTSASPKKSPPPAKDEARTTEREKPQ
- protocol: Inhibition of human recombinant SIRT2 using Fluor de Lys-SIRT as substrate incubated for 60 mins prior to substrate addition measured after 60 mins by fluorimetric analysis
pIC50: −log10 of the molar value.
metric: pIC50

| mol smiles | metric | recorded number |
| --- | --- | --- |
| CN(C(=O)c1ccc(Nc2ccccc2C(N)=O)cc1)c1ccccc1 | pIC50 | 4.16 |
| NC(=O)c1ccccc1Nc1ccc(NC(=O)c2ccccc2)cc1 | pIC50 | 4.77 |
| N#Cc1ccc(Nc2ccccc2C(N)=O)cc1 | pIC50 | 4.03 |
| NC(=O)c1ccccc1Nc1ccc(CCc2ccccc2)cc1 | pIC50 | 4.06 |
| NC(=O)c1ccccc1Nc1cccc(-c2ccccc2)c1 | pIC50 | 4.48 |

a. NC(=O)c1ccccc1Nc1cccc(OCCc2cccc(Br)c2)c1
b. COC(=O)CCc1cccc(Nc2ccccc2C(N)=O)c1
Higher pIC50 between a and b ? Your answer should be the label attached to the chosen record. a
